# experiment: refractive index (Na D-line) (dimensionless)
# experimental parameters: 293.15 K; 101.33 kPa; Liquid; Standard Abbe refractometry

compound	refractive index
CCCCCO [pentan-1-ol]	1.40994
C1CCC(NC2CCCCC2)CC1 [N-cyclohexylcyclohexanamine]	1.48416
CCCO [propan-1-ol]	1.38578
CCCCO [butan-1-ol]	1.39932
CCC(C)O (stereo not given) [butan-2-ol]	1.39736

* * *

Reported mass density values for the following molecules.
# experimental parameters: 308.15 K; 101 kPa; Liquid; Vibrating tube method
± gives the expanded uncertainty stated by the source.

molecule	mass density
CCCCCO	803.558 ± 0.24 kg/m3
CCCO	791.576 ± 0.15 kg/m3
CCCCO	798.053 ± 0.15 kg/m3
CC(C)(C)O	770.193 ± 0.15 kg/m3
CCC(C)O (stereo unspecified)	794.03 ± 0.24 kg/m3
C1CCC(NC2CCCCC2)CC1	900.372 ± 0.23 kg/m3

* * *

# experimental parameters: 318.15 K; 101 kPa; Liquid; Vibrating tube method

compound	mass density [kg/m3]
CCC(C)O (stereo unspecified)	785.117
C1CCC(NC2CCCCC2)CC1	892.847
CCCCCO	796.001
CCCO	783.309
CC(C)(C)O	759.488
CCCCO	790.231

* * *

Reported mass density values for the following molecules.
# experimental parameters: 303.15 K; 101 kPa; Liquid; Vibrating tube method
readout: mass density (kg/m3)

molecule	observed result
CC(C)(C)O	775.412
CCC(C)O (stereo unspecified)	798.326
CCCCO	801.923
CCCO	795.65
C1CCC(NC2CCCCC2)CC1	904.144
CCCCCO	807.278

* * *

# experimental parameters: 323.15 K; 101 kPa; Liquid; Vibrating tube method
Reported mass density values for the following molecules.

molecule	unit abbreviation	mass density
CCCCO	kg/m3	786.238
C1CCC(NC2CCCCC2)CC1	kg/m3	889.089
CCCCCO	kg/m3	792.166
CCCO	kg/m3	779.095
CCC(C)O (stereo unspecified)	kg/m3	780.515
CC(C)(C)O	kg/m3	754.015

* * *

# experiment: refractive index (Na D-line) (dimensionless)
# experimental parameters: 313.15 K; 101.33 kPa; Liquid; Standard Abbe refractometry

molecule	refractive index
CC(C)(C)O [2-methylpropan-2-ol]	1.37667
CCCCCO [pentan-1-ol]	1.40189
CCC(C)O (stereo unspecified) [butan-2-ol]	1.38832
CCCCO [butan-1-ol]	1.3911
CCCO [propan-1-ol]	1.37702
C1CCC(NC2CCCCC2)CC1 [N-cyclohexylcyclohexanamine]	1.47562

* * *

# experiment: refractive index (Na D-line) (dimensionless)
# experimental parameters: 298.15 K; 101.33 kPa; Liquid; Standard Abbe refractometry
± gives the expanded uncertainty stated by the source.
Reported refractive index values for the following compounds.

compound	refractive index
CCCO	1.38364 ± 0.00036
CCCCCO	1.40796 ± 0.0004
C1CCC(NC2CCCCC2)CC1	1.48198 ± 0.0004
CCC(C)O (stereo not given)	1.39515 ± 0.0004
CCCCO	1.3973 ± 0.00036

* * *

# experimental parameters: 313.15 K; 101 kPa; Liquid; Vibrating tube method
Reported mass density values for the following molecules.

molecule	unit abbreviation	mass density
CC(C)(C)O	kg/m3	764.884
CCC(C)O (stereo unspecified)	kg/m3	789.632
C1CCC(NC2CCCCC2)CC1	kg/m3	896.608
CCCCCO	kg/m3	799.817
CCCCO	kg/m3	794.147
CCCO	kg/m3	787.466
